System: TTR
PROTOCOL DESCRIPTION: TTR editing in primary human hepatocytes transfected with Spy Cas9 mRNA and sgRNAs (Table 13)
Type: cell-based
DETAILS: primary human hepatocytes co-transfected with Spy Cas9 mRNA (SEQ ID NO:2) and sgRNAs, 12.5 nM
Strand notation (5' to 3'): a small letter for the sugar, then the base; units joined by * are phosphorothioate-linked, units joined directly phosphodiester-linked; [ ] holds rarer units or linkages, { } end groups; capitals alone tell only the bases. m = 2'-O-methyl; r = 2'-OH (RNA)
Answer each item with its documented Avg % Deletion.
One number for each entry, in %.

The following molecules have reported results that may help.
| MOLECULE | UNIT | Avg % Deletion |
| --- | --- | --- |
| G000499: TTR sgRNA modified sequence, Human, SEQ ID No. 106; guide sequence of CR005303 (nucleic acid) guide: mU*mG*mA*rArUrCrCrArArGrUrGrUrCrCrUrCrUrGrArGrUrUrUrUrArGrAmGmCmUmAmGmAmAmAmUmAmGmCrArArGrUrUrArArArArUrArArGrGrCrUrArGrUrCrCrGrUrUrArUrCrAmAmCmUmUmGmAmAmAmAmAmGmUmGmGmCmAmCmCmGmAmGmUmCmGmGmUmGmCmU*mU*mU*mU | % | 0.77 |
| G000494: TTR sgRNA modified sequence, Human, SEQ ID No. 101; guide sequence of CR003360 (nucleic acid) guide: mG*mU*mG*rArGrUrCrUrGrGrArGrArGrCrUrGrCrArUrGrUrUrUrUrArGrAmGmCmUmAmGmAmAmAmUmAmGmCrArArGrUrUrArArArArUrArArGrGrCrUrArGrUrCrCrGrUrUrArUrCrAmAmCmUmUmGmAmAmAmAmAmGmUmGmGmCmAmCmCmGmAmGmUmCmGmGmUmGmCmU*mU*mU*mU | % | 1.07 |
| G000487: TTR sgRNA modified sequence, Human, SEQ ID No. 94; guide sequence of CR003357 (nucleic acid) guide: mU*mU*mC*rUrUrUrGrGrCrArArCrUrUrArCrCrCrArGrGrUrUrUrUrArGrAmGmCmUmAmGmAmAmAmUmAmGmCrArArGrUrUrArArArArUrArArGrGrCrUrArGrUrCrCrGrUrUrArUrCrAmAmCmUmUmGmAmAmAmAmAmGmUmGmGmCmAmCmCmGmAmGmUmCmGmGmUmGmCmU*mU*mU*mU | % | 2.27 |

I would be grateful if you could share the reported Avg % Deletion for G000490: TTR sgRNA modified sequence, Human, SEQ ID No. 97; guide sequence of CR003366 (nucleic acid) guide: mA*mA*mA*rUrArGrArCrArCrCrArArArUrCrUrUrArCrGrUrUrUrUrArGrAmGmCmUmAmGmAmAmAmUmAmGmCrArArGrUrUrArArArArUrArArGrGrCrUrArGrUrCrCrGrUrUrArUrCrAmAmCmUmUmGmAmAmAmAmAmGmUmGmGmCmAmCmCmGmAmGmUmCmGmGmUmGmCmU*mU*mU*mU .
5.38
